target of assay: Torsin-1A-interacting protein 2 (Homo sapiens) (UniProt Q8NFQ8)
Sequence (Q8NFQ8 whole entry, looked up): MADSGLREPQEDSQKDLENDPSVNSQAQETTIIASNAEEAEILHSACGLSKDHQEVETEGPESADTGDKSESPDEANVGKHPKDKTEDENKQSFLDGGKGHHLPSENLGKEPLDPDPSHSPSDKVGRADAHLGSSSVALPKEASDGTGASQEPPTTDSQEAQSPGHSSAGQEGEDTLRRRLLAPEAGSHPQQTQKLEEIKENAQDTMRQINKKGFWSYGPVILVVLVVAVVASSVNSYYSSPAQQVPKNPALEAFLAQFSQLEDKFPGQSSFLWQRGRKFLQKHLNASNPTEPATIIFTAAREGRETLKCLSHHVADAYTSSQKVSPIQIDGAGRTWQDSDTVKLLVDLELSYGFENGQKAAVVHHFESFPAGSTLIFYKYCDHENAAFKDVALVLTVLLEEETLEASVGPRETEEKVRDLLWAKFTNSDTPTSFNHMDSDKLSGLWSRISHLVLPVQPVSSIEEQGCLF
assay details: small molecules binding lysate-expressed LULL1 – cell lysate, human LULL1 lysate, 635/667 nm fluorescence, primary screen (AID 1092);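 note: probe is lysate of COS7 cells overexpressing human LULL1; score merges per-feature 667 nm fluorescence with signal-to-noise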
measurement setup: small-molecule microarray, hLULL1 lysate binding, 635 nm fluorescence; higher = more signal
Rule: composite z-score under 3 gives N, otherwise Y.

### Prompt Kindly determine if composite z-score recorded for CCCCC[C@H]1OC[C@@]23C=C(Br)[C@@H](CC12)[C@@]1(CO1)C3=O (stereo partly drawn) is above or exactly 3.
### Response N

### Prompt Kindly determine if composite z-score recorded for O=C1C2C=CC(C(O)c3cccc(O)c3)N(Nc3ccc([N+](=O)[O-])cc3)C2C(=O)N1c1ccccc1 (stereo not drawn) is above or exactly 3.
### Response N

### Prompt Kindly determine if composite z-score recorded for `CN(C)C(=O)[C@@]1(Cc2ccccc2)N=C(c2ccc(OCCCO)cc2)O[C@H]1c1ccccc1` is above or exactly 3.
### Response Y

### Prompt Kindly determine if composite z-score recorded for COC(=O)C1=CC(CCCO)=CC(c2cccs2)N(Cc2cccc(OC(F)(F)F)c2)C=C1C(=O)OC (stereo not drawn) is above or exactly 3.
### Response Y

### Prompt Kindly determine if composite z-score recorded for `Cc1ccc(S[C@]2(C(=O)NCC(F)(F)F)CC(=O)N(Cc3cc(C(F)(F)F)cc(C(F)(F)F)c3)[C@@H]2c2ccc(CO)cc2)cc1` is above or exactly 3.
### Response N

### Prompt Kindly determine if composite z-score recorded for `CCCC[C@@H]1C[C@H]1[C@@H](NC(=O)c1cccs1)c1ccccc1C(F)(F)F` is above or exactly 3.
### Response Y

### Prompt Kindly determine if composite z-score recorded for `CO[C@H]1O[C@H](CO)[C@@H](OC(=O)CCc2ccccc2)[C@@H]2OC(=O)[C@@H](Cc3ccccc3)C/C=C/C[C@H](Cc3ccccc3)C(=O)O[C@@H]12` is above or exactly 3.
### Response N

====

Please go through the items and note down their composite z-score.
target of assay: Dihydroorotate dehydrogenase (quinone), mitochondrial (Plasmodium falciparum (isolate 3D7))
assay details: inhibition of P. falciparum DHODH – biochemical, C-terminal His tag, absorbance 600 nm, primary screen (AID 1175);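 note: recombinant parasite enzyme with a five histidine tag at its C terminus; test concentration not given here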
measurement setup: PfDHODH enzyme, DCIP absorbance 600 nm; higher = more signal, called active from +8 up or from −8 down
Number, no unit, nothing else.

### Prompt Would you mind telling me what composite z-score value was observed for `C=CC[C@]1(C(=O)N2CCOCC2)COC(c2ccc(OCCCO)cc2)=N1` ?
### Response -0.214

### Prompt Would you mind telling me what composite z-score value was observed for O=C1NC(=O)C2C1C=CC(C(O)c1ccco1)N2Nc1ccc(Cl)cc1Cl (stereo unspecified) ?
### Response 0.893

### Prompt Would you mind telling me what composite z-score value was observed for `C[N+](C)(C)CCCCCCNC(=O)[C@@H]1C[C@@H]2C(=O)N3CCC[C@H]3C(=O)N2[C@@H]1c1ccc(O)cc1` ?
### Response -1.53

### Prompt Would you mind telling me what composite z-score value was observed for `CCCCC(=C=CC[C@H](O)c1ccc(OCCO)cc1)CCO` ?
### Response -0.32

### Prompt Would you mind telling me what composite z-score value was observed for `CCOC(=O)C[C@H]1[C@H](OC(=O)c2ccccc2-c2ccccc2)[C@@H](NC(=O)c2ccc3ccccc3c2)c2cc(OCCCO)ccc2N1C(=O)c1ccccc1` ?
### Response 0.198

### Prompt Would you mind telling me what composite z-score value was observed for `COc1ccc(C(=O)Nc2ccc(CN3C(=O)[C@]4(O[C@H](CC(=O)N5Cc6ccccc6C[C@H]5CO)[C@@H]([Si](C)(C)c5ccc(OC)cc5)[C@@H]4C)c4ccccc43)cc2)cc1` ?
### Response -2.72

### Prompt Would you mind telling me what composite z-score value was observed for `COc1ccc(CCNC(=O)[C@@H]2c3ccccc3C(=O)N(C3CCCCC3)[C@H]2c2ccc(CO)cc2)cc1` ?
### Response 0.77

### Prompt Would you mind telling me what composite z-score value was observed for `CCOC(=O)C1=CC[C@@H](c2ccccc2F)N(S(=O)(=O)c2ccc(C)cc2)[C@H]1c1ccccc1` ?
### Response -0.496

### Prompt Would you mind telling me what composite z-score value was observed for `CCCC=C(CCC)[C@@H](NC(=O)c1cccs1)c1ccc(C(=O)OC)cc1` ?
### Response 0.519

### Prompt Would you mind telling me what composite z-score value was observed for `CCOC(=O)C[C@H]1[C@H](OC(=O)c2ccc(C(=O)c3ccccc3)cc2)[C@@H](NC(=O)c2ccc3ccccc3n2)c2cc(OCCCO)ccc2N1C(=O)Cc1ccc(OC)cc1` ?
### Response -0.0608

### Prompt Would you mind telling me what composite z-score value was observed for COc1cc2c(cc1O)C(c1ccc(CN3CCCC3)cc1)N(Cc1cc3c(cc1Br)OCO3)CC2 (stereo unspecified) ?
### Response -0.296

### Prompt Would you mind telling me what composite z-score value was observed for `COCCOC(=O)N1C(=O)[C@@]2(c3ccccc31)[C@H](c1ccc(O)cc1)N1[C@H](c3ccccc3)[C@H](c3ccccc3)OC(=O)[C@H]1[C@@H]2C(=O)N1CCN(c2ncccn2)CC1` ?
### Response -0.18

### Prompt Would you mind telling me what composite z-score value was observed for CCCCCCCCCCC(O)C1C=CC2C(=O)N(c3ccccc3)C(=O)C2N1Nc1ccc(C#N)cc1 (stereo unspecified) ?
### Response 0.481

### Prompt Would you mind telling me what composite z-score value was observed for `O=C(O)[C@@H]1C[C@@H]2C(=O)N3CCC[C@H]3C(=O)N2[C@@H]1c1ccc(O)cc1` ?
### Response -1.7

### Prompt Would you mind telling me what composite z-score value was observed for `CCCC=C(CCC)[C@@H](NC(=O)C(C)(C)C)c1ccc(C(=O)OC)cc1` ?
### Response 0.0907

### Prompt Would you mind telling me what composite z-score value was observed for `O[C@@H](Cc1ccccc1)[C@@H](/C=C/C1CC1)N(CC#Cc1ccccc1)Cc1ccccc1Br` ?
### Response 0.63

====

Please go through the items and note down their composite z-score.
target of assay: Follistatin-related protein 3 (Homo sapiens)
assay details: compounds binding follistatin-related protein 3 – biochemical, small-molecule microarray, 635 nm fluorescence, primary screen (AID 1105);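 note: score merges emission near 667 nm and signal to noise per printed spot across three slides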
measurement setup: FSTL3 binding, higher = more signal
Number, no unit, nothing else.

### Prompt Would you mind telling me what composite z-score value was observed for `COc1ccc([C@H]2OC[C@@H]3C[C@H](Cc4ccccc4)C(=O)N32)cc1` ?
### Response 0.401

### Prompt Would you mind telling me what composite z-score value was observed for `COc1ccc(CCNC(=O)[C@@]2(Cc3ccccc3I)c3ccccc3C(=O)N(C3CCCCC3)[C@H]2c2ccc(CO)cc2)cc1` ?
### Response 0.123

### Prompt Would you mind telling me what composite z-score value was observed for `CC1=C2[C@@H](CCc3ccccc3)OB(O)C[C@@H]2[C@@H]2C(=O)N(C)C(=O)[C@@H]2C1` ?
### Response 0.451

### Prompt Would you mind telling me what composite z-score value was observed for `CCCN1C(=O)[C@]2(Cc3ccccc31)N=C(c1ccc(OCCCO)cc1)O[C@@H]2c1ccccc1` ?
### Response 0.515

### Prompt Would you mind telling me what composite z-score value was observed for `COCC(=C=CC[C@H](O)c1ccc(CO)o1)CCO` ?
### Response 1.19

### Prompt Would you mind telling me what composite z-score value was observed for `CCOC(=O)C1=CC[C@@H](c2ccccc2F)N(S(=O)(=O)c2ccc(C)cc2)[C@H]1c1ccccc1` ?
### Response 0.766

### Prompt Would you mind telling me what composite z-score value was observed for `O=C(c1ccccc1)N1C(=O)[C@]2(Cc3ccccc31)N=C(c1ccc(OCCCO)cc1)O[C@@H]2c1ccccc1` ?
### Response 0.554

### Prompt Would you mind telling me what composite z-score value was observed for O=C1C2C=CC(C(O)c3ccco3)N(Nc3ccccc3F)C2C(=O)N1c1ccccc1 (stereo unspecified) ?
### Response 0.338

### Prompt Would you mind telling me what composite z-score value was observed for `O=C(NCCN1CCOCC1)[C@@H]1c2ccccc2C(=O)N(C2Cc3ccccc3C2)[C@H]1c1ccc(CO)cc1` ?
### Response -0.414

### Prompt Would you mind telling me what composite z-score value was observed for `COCCOC(=O)N1C(=O)[C@@]2(c3cc(C#CC4=CCCCC4)ccc31)[C@H](C(=O)Nc1nc3ccccc3s1)[C@H]1C(=O)O[C@H](c3ccccc3)[C@H](c3ccccc3)N1[C@@H]2c1ccc(O)cc1` ?
### Response 0.918

### Prompt Would you mind telling me what composite z-score value was observed for `C=CCNC(=O)[C@@H]1[C@H]2C(=O)O[C@H](c3ccccc3)[C@H](c3ccccc3)N2[C@H](c2ccc(O)cc2)[C@@]12C(=O)N(C(=O)OCCOC)c1ccc(C#CC3=CCCCC3)cc12` ?
### Response 1.09

### Prompt Would you mind telling me what composite z-score value was observed for `NC(=O)NCC#Cc1ccc2c(c1)[C@]1(C(=O)N2)[C@H](C(=O)N2CCN(c3ncccn3)CC2)[C@H]2C(=O)O[C@H](c3ccccc3)[C@H](c3ccccc3)N2[C@@H]1c1ccc(O)cc1` ?
### Response 1.41

### Prompt Would you mind telling me what composite z-score value was observed for `CCOC(=O)C1=C[C@@H](C(C)(C)C)N(S(=O)(=O)c2ccc(C)cc2)[C@H]1c1cccc2ccccc12` ?
### Response 0.7

### Prompt Would you mind telling me what composite z-score value was observed for `CCOC(=O)C1=C[C@@H](c2ccccc2)N(S(=O)(=O)c2ccc(C)cc2)[C@H]1c1ccc(OC)cc1` ?
### Response 0.652

### Prompt Would you mind telling me what composite z-score value was observed for `COC(=O)[C@@]1(Cc2ccc(F)cc2)[C@H]2c3cc(C(=O)N4CCCC4)n(Cc4ccc(C)c(F)c4F)c3C[C@H]2CN1C(=O)c1ccccc1` ?
### Response -1.07

### Prompt Would you mind telling me what composite z-score value was observed for `COc1ccccc1CN1C(=O)c2ccccc2[C@](Cc2ccccc2I)(C(=O)O)[C@@H]1c1ccc(CO)cc1` ?
### Response 0.993

### Prompt Would you mind telling me what composite z-score value was observed for `NC(=O)[C@@]1(Cc2ccccc2)COC(c2ccc(OCCCO)cc2)=N1` ?
### Response -0.807

### Prompt Would you mind telling me what composite z-score value was observed for `C=CCN1C(=O)[C@]2(CCC(=O)OC(C)(C)C)N=C(c3ccc(OCCCO)cc3)O[C@@H]2c2ccccc21` ?
### Response 0.635

### Prompt Would you mind telling me what composite z-score value was observed for `CN(C)C(=O)[C@@]1(Cc2ccccc2)N=C(c2ccc(OCCCO)cc2)O[C@H]1c1ccccc1` ?
### Response 0.109

### Prompt Would you mind telling me what composite z-score value was observed for `CCOC(=O)C[C@H]1[C@H](OC(=O)c2cc3ccccc3oc2=O)[C@@H](NC(=O)c2ccc3ccccc3n2)c2cc(OCCCO)ccc2N1C(=O)Cc1ccc(OC)cc1` ?
### Response 1.2

### Prompt Would you mind telling me what composite z-score value was observed for `CCC#CCN(Cc1ccccc1Br)[C@H](/C=C/C1CC1)[C@@H](O)Cc1ccccc1` ?
### Response -0.583

### Prompt Would you mind telling me what composite z-score value was observed for CC(C)c1ccc(NN2C(C(O)c3ccc(F)cc3)C=CC3C(=O)N(c4ccccc4)C(=O)C32)cc1 (stereo unspecified) ?
### Response 1.37

### Prompt Would you mind telling me what composite z-score value was observed for `CCOC(=O)C[C@H]1[C@H](OC(=O)c2ccc(C(=O)c3ccccc3)cc2)[C@@H](NC(=O)c2ccc3ccccc3n2)c2cc(OCCCO)ccc2N1C(=O)Cc1ccc(OC)cc1` ?
### Response 0.346

### Prompt Would you mind telling me what composite z-score value was observed for O=C1C2C=CC(C(O)c3cccc(O)c3)N(Nc3ccc([N+](=O)[O-])cc3)C2C(=O)N1c1ccccc1 (stereo unspecified) ?
### Response 0.444

### Prompt Would you mind telling me what composite z-score value was observed for N#Cc1ccc(NN2C(C(O)c3ccc(Br)cc3)C=CC3C(=O)N(c4ccccc4)C(=O)C32)cc1 (stereo unspecified) ?
### Response 0.743

### Prompt Would you mind telling me what composite z-score value was observed for `CCCC=C(CCC)[C@@H](NC(=O)c1cccs1)c1ccc(C(=O)OC)cc1` ?
### Response 0.89

### Prompt Would you mind telling me what composite z-score value was observed for O=C1C2C=CC(C(O)C3CC=CCC3)N(Nc3ccccc3)C2C(=O)N1c1ccccc1 (stereo unspecified) ?
### Response 1.03

### Prompt Would you mind telling me what composite z-score value was observed for COc1cc(NN2C(C(O)c3cc(OC)c(OC)c(OC)c3)C=CC3C(=O)N(C)C(=O)C32)cc(OC)c1OC (stereo unspecified) ?
### Response 0.34

### Prompt Would you mind telling me what composite z-score value was observed for `[N-]=[N+]=Nc1ccccc1C[C@]1(C(=O)N2CCOCC2)COC(c2ccc(OCCCO)cc2)=N1` ?
### Response 0.634

### Prompt Would you mind telling me what composite z-score value was observed for `O=C1N(Cc2ccccc2)c2ccccc2C[C@]12N=C(c1ccc(OCCCO)cc1)O[C@@H]2c1ccccc1` ?
### Response 0.935

### Prompt Would you mind telling me what composite z-score value was observed for Cc1cc(C)c(C(O)C2C=CC3C(=O)N(c4ccccc4)C(=O)C3N2Nc2ccccc2F)c(C)c1 (stereo unspecified) ?
### Response -0.191

Reference source for all entries: PubChem BioAssay
